Test: Human HepG2 cell viability assay in 384 well format
Type: toxicity, cell-based
Design: dose 125 nL, time 70.5 hour; concentration not given beside the values
Conditions: HepG2 cells, read-out: Inhibition
measured.quantity: cytotoxicity at 70.5 h (%)
# number only, unit % dropped from output

• CC(C)NC(=O)c1nc2c(s1)CCCN2Cc1ccccc1 = -6.15
• COc1ccc(NC(=O)Cn2nc(C)c(C)cc2=O)cc1OC = 12.7
• CCn1cnnc1C1CCN(C(=O)CCCOc2ccccc2)CC1 = -3.85
• CS(=O)(=O)CCSc1nnc(Cc2ccccc2F)o1 = -1.57
• CCCn1nc2c(cc1=O)CN(Cc1nc(-c3ccco3)no1)CC2 = -1.15

Documented cytotoxicity at 70.5 h of COc1ccc(-c2csc3c2c(N)nc(=O)n3CC(N)=O)cc1 : -14.6

Documented cytotoxicity at 70.5 h of CC(c1cccc(S(N)(=O)=O)c1)N(C)CCOC(C)(C)C (stereo not given) : -2.34
